target entity: GABA-A receptor; alpha-1/beta-3/gamma-2 (Homo sapiens) (UniProt P14867+P18507+P28472)
protocol text: It is the ratio of Ki value for alpha-1-beta-3-gamma-2 to that of alpha-5-beta-3-gamma-2
Assay type: protein-complex assay
Param threshold (30) applies to Ratio; output 1 when value >= threshold, 0 when value < threshold.

// known answers, use as guide
CN1Cc2c(C(=O)OC(C)(C)C)ncn2-c2ccc(C#CC[Si](C)(C)C)cc2C1=O 0
C#Cc1ccc2c(c1)C(=O)N1CC[C@H]1c1c(-c3nc(C(C)C)no3)ncn1-2 0
CN1Cc2c(C(=O)OC(C)(C)C)ncn2-c2ccc(C#C[Si](C)(C)C)cc2C1=O 1
CCOC(=O)c1ncn2c1[C@@H]1CCN1C(=O)c1cc(Br)ccc1-2 1
CCCCC(=O)c1ncn2c1CN(C)C(=O)c1cc(Cl)ccc1-2 0
CCOC(=O)c1ncn2c1[C@@H]1CCCN1C(=O)c1cc(C#C[Si](C)(C)C)ccc1-2 1
CN1Cc2c(C(=O)OC(C)(C)C)ncn2-c2ccc(I)cc2C1=O 0
CCOC(=O)c1ncn2c1CN(C)C(=O)c1cc(C#C[Si](C)(C)C)ccc1-2 0

Reported Ratio reaches at least 30 for `C#Cc1ccc2c(c1)C(=O)N1CC[C@H]1c1c(-c3nc(CC)no3)ncn1-2` ?
0

----------
target entity: GABA-A receptor; alpha-6/beta-3/gamma-2 (Homo sapiens, UniProt P18507+P28472+Q16445)
protocol text: Binding affinity against Gamma-aminobutyric acid A receptor alpha-6-beta-3-gamma-2
experimental endpoint: log10(Ki) (log10 of the value in nM)
Scale: log10; quantity: Ki; unit before log: nM

CN1Cc2c(C(=O)OC(C)(C)C)ncn2-c2ccc(O)cc2C1=O 0.84

What value of log10(Ki) has been recorded for this entry: `CCc1ncn2c1CN(C)C(=O)c1cc(Cl)ccc1-2`
3.56

Queued: `C#Cc1ccc2c(c1)C(=O)N(C)Cc1c(C(=O)OCC)ncn1-2`
1.46

Queued: `C#Cc1ccc2c(c1)C(=O)N1CCC[C@H]1c1c(C(=O)OCC)ncn1-2`
2.10

Queued: `CC(=O)c1ncn2c1CN(C)C(=O)c1cc(Cl)ccc1-2`
4.47

Queued: `CCOC(=O)c1ncn2c1[C@@H]1CCCN1C(=O)c1cc(Br)ccc1-2`
1.66

----------
target entity: GABA-A receptor; alpha-5/beta-3/gamma-2 (Homo sapiens, UniProt P18507+P28472+P31644)
protocol text: Binding affinity for Gamma-aminobutyric acid A receptor alpha-5-beta-3-gamma-2
experimental endpoint: Ki (nM)
Output spec: scalar in nM, unitless text.

What value of Ki has been recorded for this entry: `CN1Cc2c(C(=O)OC(C)(C)C)ncn2-c2ccc([N+](=O)[O-])cc2C1=O`
3.5

Queued: `C#Cc1ccc2c(c1)C(=O)N1CCC[C@H]1c1c(-c3nc(C)no3)ncn1-2`
3.7

Queued: `CC(C)N(Cc1ncn2c1CN(C)C(=O)c1cc(Cl)ccc1-2)C(C)C`
1350

Queued: `C#Cc1ccc2c(c1)C(=O)N1CCC[C@@H]1c1c(-c3nc(C)no3)ncn1-2`
157

Queued: `CN1Cc2c(C(=O)OC(C)(C)C)ncn2-c2ccc(C#CC[Si](C)(C)C)cc2C1=O`
23

----------
target entity: GABA-A receptor; alpha-1/beta-3/gamma-2 (Homo sapiens, UniProt P14867+P18507+P28472)
Sequence (P14867 whole entry): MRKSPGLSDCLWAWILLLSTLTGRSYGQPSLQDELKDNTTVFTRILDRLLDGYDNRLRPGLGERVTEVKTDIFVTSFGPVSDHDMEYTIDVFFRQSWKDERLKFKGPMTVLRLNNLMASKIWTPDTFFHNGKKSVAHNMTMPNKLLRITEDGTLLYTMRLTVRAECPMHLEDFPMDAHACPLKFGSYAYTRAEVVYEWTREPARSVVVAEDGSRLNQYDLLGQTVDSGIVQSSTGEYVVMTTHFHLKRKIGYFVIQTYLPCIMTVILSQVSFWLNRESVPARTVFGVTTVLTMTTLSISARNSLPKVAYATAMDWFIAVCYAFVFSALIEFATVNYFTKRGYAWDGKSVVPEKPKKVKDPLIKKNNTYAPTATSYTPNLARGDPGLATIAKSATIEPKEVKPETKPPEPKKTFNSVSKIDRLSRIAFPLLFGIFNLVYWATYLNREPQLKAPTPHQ
Sequence (P18507 whole entry): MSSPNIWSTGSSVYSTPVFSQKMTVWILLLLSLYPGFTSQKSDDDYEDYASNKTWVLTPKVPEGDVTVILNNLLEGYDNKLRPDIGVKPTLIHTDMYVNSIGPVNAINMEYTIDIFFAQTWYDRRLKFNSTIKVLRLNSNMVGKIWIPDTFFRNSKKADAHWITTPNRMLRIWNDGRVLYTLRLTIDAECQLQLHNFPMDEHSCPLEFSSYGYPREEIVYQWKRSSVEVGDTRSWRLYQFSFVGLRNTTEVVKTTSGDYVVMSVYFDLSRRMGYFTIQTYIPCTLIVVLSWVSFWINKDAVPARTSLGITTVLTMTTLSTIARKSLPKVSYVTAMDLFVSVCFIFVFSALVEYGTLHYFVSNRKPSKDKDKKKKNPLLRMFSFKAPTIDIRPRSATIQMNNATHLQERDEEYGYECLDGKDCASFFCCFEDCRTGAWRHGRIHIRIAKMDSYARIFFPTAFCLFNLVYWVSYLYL
Sequence (P28472 whole entry): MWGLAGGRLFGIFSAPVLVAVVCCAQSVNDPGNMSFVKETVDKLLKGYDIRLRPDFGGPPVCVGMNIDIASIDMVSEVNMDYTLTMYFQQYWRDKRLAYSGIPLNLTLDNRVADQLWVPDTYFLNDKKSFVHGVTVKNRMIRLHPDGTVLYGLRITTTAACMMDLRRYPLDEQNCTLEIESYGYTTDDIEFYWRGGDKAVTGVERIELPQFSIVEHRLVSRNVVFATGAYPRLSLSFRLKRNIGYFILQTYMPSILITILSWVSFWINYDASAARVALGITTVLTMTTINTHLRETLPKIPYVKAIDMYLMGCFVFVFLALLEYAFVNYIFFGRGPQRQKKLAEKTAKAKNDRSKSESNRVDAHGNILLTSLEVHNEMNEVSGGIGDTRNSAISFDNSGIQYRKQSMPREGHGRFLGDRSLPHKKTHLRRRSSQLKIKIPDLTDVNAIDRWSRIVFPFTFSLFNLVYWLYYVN
protocol text: Binding affinity against alpha-1-beta-3-gamma-2 GABAA/BzR receptor subtype.
Catalogue of pKi values
# pKi: negative log10 of molar concentration; output just the value

CC#Cc1ccc2c(c1)C(=O)N(C)Cc1c(C(=O)OCC)ncn1-2 8.00
C#Cc1ccc2c(c1)C(=O)N1CCC[C@H]1c1c(-c3nc(CC)no3)ncn1-2 7.07
C#Cc1ccc2c(c1)C(=O)N1CC[C@H]1c1c(C(=O)OCC)ncn1-2 7.68
CCc1ncn2c1CN(C)C(=O)c1cc(Cl)ccc1-2 6.39
CCN(CC)Cc1ncn2c1CN(C)C(=O)c1cc(Cl)ccc1-2 5.02
CN1Cc2c(C(=O)OC(C)(C)C)ncn2-c2ccc(C#C[Si](C)(C)C)cc2C1=O 6.71
CN1Cc2c(C(=O)OC(C)(C)C)ncn2-c2ccc(O)cc2C1=O 8.82
C#Cc1ccc2c(c1)C(=O)N1CCC[C@@H]1c1c(C(=O)OCC)ncn1-2 6.55

What value of pKi has been recorded for this entry: `CCOC(=O)c1ncn2c1CN(C)C(=O)c1cc(C#N)ccc1-2`
8.00

Queued: `C#Cc1ccc2c(c1)C(=O)N1CCC[C@H]1c1c(-c3nc(C(C)C)no3)ncn1-2`
7.14

----------
target entity: GABA-A receptor; alpha-6/beta-3/gamma-2 (Homo sapiens, UniProt P18507+P28472+Q16445)
protocol text: Binding affinity against Gamma-aminobutyric acid A receptor alpha-6-beta-3-gamma-2
Format: protein-complex assay
pKi: −log10 of the molar value.
Param threshold (7) applies to pKi; output Fulfilled when value >= threshold, Not fulfilled when value < threshold.

// known answers, use as guide
C#Cc1ccc2c(c1)C(=O)N(C)Cc1c(C(=O)OC(C)(C)C)ncn1-2 Fulfilled
CCN(CC)Cc1ncn2c1CN(C)C(=O)c1cc(Cl)ccc1-2 Not fulfilled
C#Cc1ccc2c(c1)C(=O)N1CC[C@H]1c1c(-c3nc(C)no3)ncn1-2 Not fulfilled
CCOC(=O)c1ncn2c1[C@@H]1CCN1C(=O)c1cc(C#C[Si](C)(C)C)ccc1-2 Not fulfilled
C#Cc1ccc2c(c1)C(=O)N1CCC[C@H]1c1c(-c3nc(C(C)C)no3)ncn1-2 Not fulfilled
CN1Cc2c(C(=O)OC(C)(C)C)ncn2-c2ccc(C#C[Si](C)(C)C)cc2C1=O Fulfilled

Reported pKi reaches at least 7 for `COCc1ncn2c1CN(C)C(=O)c1cc(Cl)ccc1-2` ?
Not fulfilled

Queued: `CN1Cc2c(C(=O)OCC3CC3)ncn2-c2ccc(Cl)cc2C1=O`
Not fulfilled

Queued: `CCOC(=O)c1ncn2c1[C@@H]1CCCN1C(=O)c1cc(C#C[Si](C)(C)C)ccc1-2`
Not fulfilled

Queued: `C#Cc1ccc2c(c1)C(=O)N1CCC[C@@H]1c1c(-c3nc(C)no3)ncn1-2`
Not fulfilled

Queued: `CCOC(=O)c1ncn2c1CN(C)C(=O)c1cc(C#CC[Si](C)(C)C)ccc1-2`
Not fulfilled

Queued: `CN1Cc2c(C(=O)OC(C)(C)C)ncn2-c2ccc([N+](=O)[O-])cc2C1=O`
Fulfilled

Queued: `CCOC(=O)c1ncn2c1[C@H]1CCCN1C(=O)c1cc(Br)ccc1-2`
Not fulfilled

Queued: `CCCCC(=O)c1ncn2c1CN(C)C(=O)c1cc(Cl)ccc1-2`
Not fulfilled

Queued: `CN1Cc2c(C(=O)OC(C)(C)C)ncn2-c2ccc(I)cc2C1=O`
Fulfilled

Queued: `CN1Cc2c(C(=O)OC(C)(C)C)ncn2-c2ccc(N=[N+]=[N-])cc2C1=O`
Fulfilled
